Data provenance is patent US20200055939A1.

assay system: T1, huMICB*005 alpha 3-his (human)
T1 construct: whole construct entry: GS, alpha 3 domain, GNS, His8; also called MICB005.His; MICB*005 alpha3 construct
T1 chain: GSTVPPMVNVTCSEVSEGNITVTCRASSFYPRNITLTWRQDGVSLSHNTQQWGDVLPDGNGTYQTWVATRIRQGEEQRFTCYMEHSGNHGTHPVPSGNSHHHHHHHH
assay info: SPR, Biacore 8K, antibody on Protein A chip
parameter measured: pKd
Entry type: numeric. Quantity: pKd, the -log10 of concentration in molar units.

Example binders with recorded pKd:
15F11v5 (antibody, IgG1, V domains shown, humanized variant of 15F11) VH: EIQLVQSGAEVKKPGSSVKVSCKPSGYAFTSNNIYWVRQAPGQGLEWIGYIDPYIGRIIYNQQFKDRATLTVDKSTSTAYMELSSLRSEDTAVYYCSRSGERSNFDYWGQGTLVTVSS VL: EIVLTQSPATLSLSPGERATLSCSASSSISSNYLHWYQQKPGQAPRLLIYRTSNLASGIPARFSGSGSGTDFTLTISSLEPEDFAVYYCQQGGSLPLTFGQGTKVEIK    8.11
13A9v3 (antibody, IgG1, V domains shown, humanized variant of 13A9) VH: EVQLVQSGAEVKKPGASVKVSCKASGYAFTNYLIEWVRQAPGQGLEWIGAINPGSGATNYNEKFKDRVTITADTSTSTAYLELSSLRSEDTAVYYCARFLGNYFDNWGQGTLVTVSS VL: DIQMTQSPSSLSASVGDRVTITCRASGNIHSYLAWYQQKPGKSPKLLVYYAETLADGVPSRFSGSGSGTDYTLTISSLQPEDFATYFCQQFWTTPYTFGQGTKVEIK    8.50

Please examine the following record next.
Hello, please tell me recorded pKd for this one: 13A9 (antibody, V domains shown, mouse variable domains) VH: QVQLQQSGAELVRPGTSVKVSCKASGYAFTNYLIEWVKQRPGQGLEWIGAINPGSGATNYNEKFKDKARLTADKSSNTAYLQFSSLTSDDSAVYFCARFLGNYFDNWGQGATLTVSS VL: DIQMTQSPASLSASVGETVTITCRASGNIHSYLAWYQQKQGKSPQLLVYYAETLADGVPSRFSGRGSGTQYSLKINSLQPEDFGSYFCQQFWTTPYTFGGGTKVEIK 8.63
